Value source: PubChem BioAssay AID624305

- Experimental details: qHTS assay for re-activators of p53 using a Luc reporter: Hit Validation; further: nearly all actives have a fitted effect of over 75% in size
- Measurement context: p53-responsive luciferase reporter cells, luminescence; series mostly up to 46.1 µM
Results filed as inconclusive are left out. The source made the active and inactive calls. The call rests on the fitted dose curve; in most records, active means well fitted activation curve with a large enough effect; inconclusive means small, poorly fitted or top-dose-only effect; inactive means no such curve, though single readings can be large or run the other way.
The reply should be one of these categories: Yes = active, No = inactive

# count of solved cases: 5
{"Compound": "O=C(N/N=C/c1c(O)n(C2CC2)c(=S)[nH]c1=O)c1ccccc1", "Label class": "No"}
{"Compound": "COC(=O)C1=C(c2ccc(F)cc2OCc2ccccc2)C[C@@H]2CC[C@H]1N2C(=O)NCCOc1ccc(OC)cc1", "Label class": "No"}
{"Compound": "Nc1ccccc1N=Cc1c(O)n(CCC2=CCCCC2)c(=O)[nH]c1=O", "Label class": "No"}
{"Compound": "Nc1c(C(=O)NCc2ccco2)c2nc3ccccc3nc2n1Cc1ccc(F)cc1", "Label class": "No"}
{"Compound": "N=C1c2ccccc2CN1CC(=O)c1ccccc1", "Label class": "Yes"}

Please share the test call associated with "COc1ccc(CN2CCNCC2)cc1" . No

Check Cc1cc(N2C(=O)C3CCCN3C2c2sccc2C)no1 (configuration not stated) too. No
